Field: Promega assay antagonist (EC50, ug/mL). Provide a value for each of the binders that follow.
# Target Desc: human CTLA-4 expressed on the cell surface (human, UniProt P16410 36-223)
# Sequence (P16410 36-223 limits assumed): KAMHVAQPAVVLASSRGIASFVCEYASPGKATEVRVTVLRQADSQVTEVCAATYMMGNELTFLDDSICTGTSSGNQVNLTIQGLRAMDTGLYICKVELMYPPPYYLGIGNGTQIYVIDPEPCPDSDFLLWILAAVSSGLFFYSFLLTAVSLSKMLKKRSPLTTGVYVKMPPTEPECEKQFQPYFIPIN
# Test Protocol: cell-based or functional assay
// units = µg/mL; emit number, no label

Req: Name the reported Promega assay antagonist (EC50, ug/mL) value associated with the binder antibody A4 (L4H4) (antibody, V domains shown, also called aCTLA-4.29) VH: QVQLVESGGGVVQPGRSLRISCAASGFTFSSYGIHWVRQAPGKGLQWVAVIWYDGRNKYYADSVKGRFTISRDNSKNTLYLQMNSLRAEDTAVYYCSRSGSFGAFDIWGQGTMVTVSS VL: EIVLTQSPGTLSLSPGDRATLSCRASQSGSSSYLAWYQQKPGQAPRLLIYGASSRATGIPDRFSGSGSGTDFTLTISRLEPEDFAVYYCQQYGTSPFTSGPGTKVDIK
Resp: 0.15

Req: Name the reported Promega assay antagonist (EC50, ug/mL) value associated with the binder antibody A11 (L11H11) (antibody, V domains shown, also called aCTLA-4.31) VH: QVQLVESGGGVVQPGRSLRLSCAASGFTFSSYGMHWVRQAPGKGLEWVAVIWYDVGNKYYIDSVKGRFTISRDNSKNTLYLQMNSLRAEDTAVYYCARDYYGSGSPRHFDYWGQGTLVTVSS VL: DIQLTQSPSFLSASVGDRVTITCRASQGISSYLAWYQQKPGKAPKLLIYAASTLQSGVPSRFSGSGSGTEFTLTISSLQPEDFATYYCQQLNSYPPTFGQGTKVEIK
Resp: 0.42

Req: Name the reported Promega assay antagonist (EC50, ug/mL) value associated with the binder antibody A8 (L8H8) (antibody, V domains shown, also called aCTLA-4.1) VH: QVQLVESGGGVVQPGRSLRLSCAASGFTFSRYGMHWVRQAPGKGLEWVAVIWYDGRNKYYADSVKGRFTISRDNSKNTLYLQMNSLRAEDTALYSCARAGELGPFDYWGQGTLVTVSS VL: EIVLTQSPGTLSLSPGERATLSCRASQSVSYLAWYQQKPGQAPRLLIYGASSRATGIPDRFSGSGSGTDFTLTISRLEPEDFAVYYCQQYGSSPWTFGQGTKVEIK
Resp: 0.15

Req: Name the reported Promega assay antagonist (EC50, ug/mL) value associated with the binder antibody A5 (L5H5) (antibody, V domains shown, also called aCTLA-4.28; CTLA4.A5) VH: QVQLVESGGGVVQPGRSLRLSCAASGFTFSSYGMHWVRQAPGKGLEWVAVIWYDGNNKYYADSVKGRFTISRDNSKNTLYLQMYSLRAEDTAVYYCARGGILAAGIFDYWGQGTLVTVSS VL: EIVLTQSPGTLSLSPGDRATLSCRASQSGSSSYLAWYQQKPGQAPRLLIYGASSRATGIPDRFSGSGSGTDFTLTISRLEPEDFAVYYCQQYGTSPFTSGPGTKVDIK
Resp: 0.18

Req: Name the reported Promega assay antagonist (EC50, ug/mL) value associated with the binder antibody A1 (L1H1) (antibody, V domains shown, also called aCTLA-4.9; CTLA4.A1) VH: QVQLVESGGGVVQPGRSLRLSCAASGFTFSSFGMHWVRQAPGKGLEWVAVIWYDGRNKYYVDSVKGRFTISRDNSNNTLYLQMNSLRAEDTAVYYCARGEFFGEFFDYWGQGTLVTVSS VL: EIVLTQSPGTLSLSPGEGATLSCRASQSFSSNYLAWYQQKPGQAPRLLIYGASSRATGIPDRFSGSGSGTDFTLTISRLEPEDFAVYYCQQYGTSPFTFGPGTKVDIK
Resp: 0.13
